Target: HIV-1 92UG005 envelope glycoprotein (Env) on pseudovirus (HIV-1)
Test: cell-based or functional assay
measured metric: IC50, pseudovirus neutralization

Example binders with recorded IC50, pseudovirus neutralization:
binder: PGT-135 monoclonal antibody (antibody, V domains shown) VH: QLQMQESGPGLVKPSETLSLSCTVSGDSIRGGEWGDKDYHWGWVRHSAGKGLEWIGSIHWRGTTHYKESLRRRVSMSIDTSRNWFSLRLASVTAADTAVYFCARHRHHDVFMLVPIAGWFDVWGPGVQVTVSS VL: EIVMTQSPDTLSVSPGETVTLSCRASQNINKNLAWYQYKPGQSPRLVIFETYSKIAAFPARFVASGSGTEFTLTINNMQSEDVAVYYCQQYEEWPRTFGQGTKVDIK
measured metric: IC50, pseudovirus neutralization
reported: > 10 µg/mL

binder: PGT-123 monoclonal antibody (antibody, V domains shown) VH: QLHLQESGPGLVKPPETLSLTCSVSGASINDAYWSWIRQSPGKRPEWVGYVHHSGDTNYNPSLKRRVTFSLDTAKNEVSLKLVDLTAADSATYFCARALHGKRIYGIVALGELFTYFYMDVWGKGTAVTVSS VL: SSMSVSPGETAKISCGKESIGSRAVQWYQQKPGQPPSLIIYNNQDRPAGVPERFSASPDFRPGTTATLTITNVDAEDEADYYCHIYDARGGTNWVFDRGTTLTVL
measured metric: IC50, pseudovirus neutralization
reported: 2.49 µg/mL

Let us move to another entry and its IC50, pseudovirus neutralization.
Q: Please look at this binder and report its IC50, pseudovirus neutralization: PGT-130 monoclonal antibody (antibody, V domains shown) VH: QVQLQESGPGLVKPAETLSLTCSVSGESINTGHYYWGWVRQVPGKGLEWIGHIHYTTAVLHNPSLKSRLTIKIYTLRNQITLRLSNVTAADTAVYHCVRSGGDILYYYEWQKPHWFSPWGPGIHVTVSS VL: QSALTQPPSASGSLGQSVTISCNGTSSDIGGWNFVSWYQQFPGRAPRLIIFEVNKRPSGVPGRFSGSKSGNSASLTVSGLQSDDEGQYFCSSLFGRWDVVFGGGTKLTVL
A: 0.474 µg/mL
